Please respond with reported growth inhibition for every item in the list.
# assay-procedure: NCI Yeast Anticancer Drug Screen. Data for the rad50 strain (AID 155);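 also: 0% = growth of vehicle-only cultures of the same strain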
# condition-label: S. cerevisiae rad50 strain growth inhibition; at 50.0 µM; stronger effect = higher value
About 79,000 compounds went through this panel and 15% of them were active in at least one assay; those are over-represented in the sample as a whole.
# unit: % | format: bare number

Given the compound N#CC(CNC1CCCCC1)c1ccccc1 (stereo unspecified) , what is its reported growth inhibition?
-9.35

Also N#CC1C(=O)NC(=S)NC1c1ccc2c(c1)CCC2 (stereo unspecified) , if possible.
-12.9

Follow-up entry: CC(C)N(C(=S)[S-])C(C)C.CC(C)N(C(=S)[S-])C(C)C.[Zn]
96.8

Can you check CN(C)CCCN next?
-11.3

Same read-out for COc1cccc(C2CC(C)(O)Oc3cc4c(cc32)OCO4)c1O (stereo unspecified) ?
9.15

Now consider COc1cc(C2c3cc4c(cc3OC(N3CCCCC3)C2C)OCO4)cc(OC)c1OC (stereo unspecified) and answer again.
-13.4

Same lookup for Cc1cccc2c1ccc1ccccc12 , please.
5.55

Cc1ccccc1I ?
-15.2

Same read-out for COc1cc(C(C)O)c[n+](CCc2c[nH]c3ccccc23)c1 (stereo unspecified) ?
-30

Another compound to look at: CCCCCC(=O)OC(C)COc1ccccc1 (stereo unspecified)
20.6

Next up: Cc1nc2[nH]ncn2c(=O)c1CCCl
20.9

Okay, and O=Nc1ccc(O)cc1Cc1ccccc1 ?
-10.4

Again, but for NCCCCN(CCCN)C(=O)c1ccccc1
5.5

Further, for Cn1c(=O)c2c(ncn2CCSS(=O)(=O)O)n(C)c1=O ?
-20.7

Item: CC(COC(=O)c1ccc(N)cc1)NC1CCCCC1 (stereo unspecified)
-8.2

// query: CC(=O)N[C@@H]1CCC[C@H](NC(C)=O)C1
-9.75

Repeat with CCCCCCCC(=O)OCC1OC(n2cc(F)c(=O)[nH]c2=O)C(NC(=O)OCc2ccccc2)C(O)C1O (stereo unspecified)
-15.1

Proceed to Cn1nc(-c2ccccc2)c([N+](=O)[O-])c1NCc1ccccc1
-0.8

Also, Cc1ccc2c(c1-c1ccccc1)C(=O)OC2 please.
-5.4

Another compound: O=C(O)c1cc(N2C(=O)c3ccc4c5ccc6c7c(ccc(c8ccc(c3c48)C2=O)c75)C(=O)N(c2ccc(O)c(C(=O)O)c2)C6=O)ccc1O
-8.4

Again, but for COc1ccc(C(C)c2cc3c(cc2OCCO)OCO3)cc1 (stereo unspecified)
8.35

Field entry: Cc1ccccc1S(=O)(=O)NC1c2ccccc2Oc2ccccc21
-9.85

COc1ccccc1N=Nc1c(C)nc(N)nc1-c1ccccc1 , same question.
23.1

And what about the compound CC1CCC2(C)OC1OC2CN (stereo unspecified) ?
1.15

Param item: COc1ccc([B-]23OCC[N+]2(CNC(=O)c2ccccc2O)CCO3)cc1 (stereo unspecified)
27.4

Next entry: c1cc[n+](-c2nc3ccccc3[n-]2)cc1
2.75

----------
# assay-procedure: NCI Yeast Anticancer Drug Screen. Data for the bub3 strain (AID 167)
# condition-label: S. cerevisiae bub3 mutant strain, at 50.0 µM
# Method: Growth inhibition of yeast strains with defined genetic alterations is measured as a screen for potential anti-cancer activity. Selected strains with alterations in DNA damage repair or cell cycle control were exposed to compounds and growth inhibition was measured relative to vehicle treated controls. The strain used in this assay is bub3
About 79,000 compounds went through this panel and 15% of them were active in at least one assay; those are over-represented in the sample as a whole. Activity calls are given as the source filed them. No stated cut-off is given here; in the data, active means growth inhibition above about 70%; inactive means the rest.
Hi there, use one of these labels in your reply, thanks! active, inactive

Record lookup: outcome of this test for COC1=C(OC)C(=O)C(C(=O)CCCCC(=O)O)=C(C)C1=O ?
inactive

Moving on to COc1cc(C2SC(N)=Nc3c2c(C)nn3C(=O)c2ccccc2O)ccc1O (configuration not stated)
inactive

Another compound to look at: COc1ccc2[nH]cc(C=O)c2c1
inactive

// next record CCCc1c(OC(=O)c2ccc([N+](=O)[O-])cc2)cccc1OC(=O)c1ccc([N+](=O)[O-])cc1
inactive

Another compound: O=C(O)CCc1nc2c(n1Cc1ccccc1)C(=O)c1ccccc1C2=O
inactive

// next record Cc1nn(C23CC4CC(CC(C4)C2)C3)c(C(Cl)Cl)c1Cl
inactive

Next compound: COC1=CC(=O)c2ccc(C(C)C)cc2C1(C)C1=NC(C)(C)CO1 (configuration not stated)
inactive

Can you check Oc1ccc(Cl)c2cccnc12 next?
active

Also, COc1ccc2c(c1)CCCN1Cc3cc(OC)c(OC)cc3CC21 (configuration not stated) please.
inactive

Okay, and O=C(NNC(=O)OCc1ccccc1)OCc1ccccc1 ?
inactive

Try CC(=O)n1c(N)nc2ccccc21 next.
inactive

# repeat for CCCCCCCCCCCCCCCCCCNC(=S)N(C)C
inactive

Now consider COc1cc(N=Nc2ccccc2)cc(/C=N\NC(=S)Nc2cccc(C)c2)c1O and answer again.
inactive

Next up: Nc1cc(Cl)cc(S(=O)(=O)O)c1O
inactive

Now give it for COC(=O)C(C(=O)c1ccccc1)c1ccccc1 (configuration not stated) too.
inactive

What about this compound? COC(=O)/C(=N/Nc1cccc(Cl)c1)C(C(=O)C(=O)Nc1cccc(Cl)c1C)c1nc2ccccc2nc1C (configuration not stated)
inactive

Then this compound: O=S1(=O)C=Cc2ccccc2CC1
inactive

Now consider CCCCN=C1NS(=O)(=O)c2ccccc21 .
inactive

Next compound: CC(=O)OCC(C)Cc1ccc(C(C)(C)C)cc1 (configuration not stated)
inactive

Same lookup for CCc1c([N+](=O)[O-])c2cc([N+](=O)[O-])ccc2n1C , please.
inactive

Moving on to CN(C=O)C(C(=O)Nc1cccc2c(OC(=O)C(N(C)C=O)(N(C)C=O)N(C)C=O)c(N=Nc3ccc(S(=O)(=O)Nc4nccs4)cc3)cc(N=Nc3ccc(S(=O)(=O)Nc4nccs4)cc3)c12)(N(C)C=O)N(C)C=O (tested in a mixture with another compound)
inactive

Same read-out for COc1c(-c2ccc(F)cc2)oc2c(CC(=O)O)cccc2c1=O ?
inactive

----------
Please respond with reported growth inhibition for every item in the list.
# assay-procedure: NCI Yeast Anticancer Drug Screen. Data for the mlh1 rad18 strain (AID 175)
# condition-label: S. cerevisiae mlh1 rad18 strain growth inhibition; at 50.0 µM; stronger effect = higher value
About 79,000 compounds went through this panel and 15% of them were active in at least one assay; those are over-represented in the sample as a whole. Activity calls are given as the source filed them. Rule as the data show it: active = growth inhibition above about 70%; inactive = the rest.

GET /values?readout=growth inhibition&item= Cc1ccc2[nH]c(=S)[nH]c(=S)c2c1
36% (inactive)

Next up: Cc1cc(-c2ccccc2)nc(Nc2nc3ccccc3o2)n1
-2.3% (inactive)

// query: Cc1cccc(Cl)c1NC(=O)c1cccc(C(=O)Nc2c(C)cccc2Cl)c1
27.6% (inactive)

// same read-out, input: O=C(Nc1ccn(C2CCC(COC(c3ccccc3)(c3ccccc3)c3ccccc3)O2)c(=O)n1)c1ccccc1 (stereo unspecified)
16.9% (inactive)

Try CC(=O)Nc1cc(F)c(N=Nc2ccc(F)cc2)c(F)c1 next.
3.45% (inactive)

How about this compound: Cc1cc(Cl)cc(CN(C)Cn2c(=O)cc[nH]c2=O)c1O
2.2% (inactive)

# repeat for O=C1CCCC2=C1CC1=C(CCCC1=O)N2c1cccc2ccccc12
28.1% (inactive)

Query CCOC(=O)/C(N=O)=C(/C)O next
11.3% (inactive)

Now the same for CC(=O)Nc1ccc(N=C2c3ccccc3-c3ccc([N+](=O)[O-])cc32)cc1
-13.6% (inactive)

Moving on to the next compound: CCOC(=O)/C(C#N)=C/c1cccc(Cl)c1
44% (inactive)

Please give the result for COc1cc(CNC(=S)CCCCCCCCCCC(C)C)ccc1O too.
-21.4% (inactive)

----------
# assay-procedure: NCI Yeast Anticancer Drug Screen. Data for the rad50 strain (AID 155);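 also: 0% = growth of vehicle-only cultures of the same strain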
# condition-label: S. cerevisiae rad50 strain growth inhibition; at 50.0 µM; stronger effect = higher value
About 79,000 compounds went through this panel and 15% of them were active in at least one assay; those are over-represented in the sample as a whole.
Cut-off -10% on growth inhibition, inclusive. At or above means criterion met; below means criterion not met.

Quick check, growth inhibition >= -10%? Cc1c(Cl)cccc1NC(=O)Oc1ccc(Cl)cc1
criterion met

Try the compound O=C(O)c1ccc(O)c(C(=O)O)c1
criterion met

Same question for CC(C)(O)C(Br)(Br)Br please.
criterion met

Try COc1ccc(/C(=N\O)c2nccc3cc(OC)c(OC)cc23)cc1OC next.
criterion met

Try CN(C)c1nc(Oc2nc(N(C)C)nc(N(C)C)n2)nc(N(C)C)n1 next.
criterion not met

Okay, and COC(=O)C1CC(=O)CCC1c1ccccc1 (configuration not stated) ?
criterion met

Next: COC(=O)c1cccc(C)c1C(=O)c1ccc(C)cc1C
criterion met

Proceed to Cc1cc(/C=C\[N+](=O)[O-])c(C)c2c1oc1ccccc12
criterion not met

Here is the next compound: Nc1nc2nc(Br)[nH]c2c(=O)[nH]1
criterion met

Do the same for CC1CCC(C(C)C)C(OC(=O)c2ccccc2O)C1 (configuration not stated) please
criterion met

Same question, COc1cccc(/C=C2\C(=O)N(C(=O)c3ccc(NC(C)=O)cc3)N=C2C)c1 this time
criterion not met

Try O=C1C=CC(=NN=c2c3ccccc3oc3ccccc23)C=C1 next.
criterion not met
